Listed below are compounds with IC50 for Tyrosine-protein kinase JAK2 (Homo sapiens), each taken from published literature.

[
  {
    "COMPOUND": "[2H]C1([2H])C([2H])([2H])C2(COc3cccc(-c4cn([C@H]5C[C@@H](N6CC[S+]([O-])CC6)C5)c5ncnc(N)c45)c3F)OC1([2H])C([2H])([2H])C2([2H])[2H]",
    "IC50": "> 10000 nM"
  },
  {
    "COMPOUND": "O=S(=O)(CCC(F)(F)F)NC12CC(n3cnc4cnc5[nH]ccc5c43)(C1)C2",
    "IC50": "155 nM"
  },
  {
    "COMPOUND": "CCN1CCC(Oc2ccc(Nc3nccc(-c4ccc(C(=O)NCC#N)cc4)n3)cc2)CC1",
    "IC50": "< 100 nM"
  },
  {
    "COMPOUND": "CCC(=O)c1cnc(Nc2ccc(C(NC)C(F)(F)F)cn2)cc1Nc1cccc(-c2ncn(C)n2)c1OC (centres unmarked)",
    "IC50": "50 to 500 nM"
  },
  {
    "COMPOUND": "CCS(=O)(=O)N1CC(CC#N)(n2cc(-c3nc(-c4cnn(C)c4)cn4nccc34)c(N)n2)C1",
    "IC50": "64 nM"
  },
  {
    "COMPOUND": "Nc1cc2ccc1-c1ccnc(n1)Nc1ccc(F)c(c1)COc1ccc(cc1)NC2=O",
    "IC50": "> 10000 nM"
  },
  {
    "COMPOUND": "O=C(Nc1nc2ccc(Oc3ccc4nc(Nc5ccc(F)cc5F)[nH]c4c3)nc2s1)C1CC1",
    "IC50": "> 10000 nM"
  },
  {
    "COMPOUND": "Cn1nc(C(=O)N[C@H]2C[C@H](C(=O)NCCC(F)(F)F)C2)c2c1CCN(c1ncnc3[nH]ccc13)C2",
    "IC50": "> 2000 nM"
  },
  {
    "COMPOUND": "Cc1ccc(OC[C@H](O)CNc2cc[nH]c(=O)c2-c2nc3cc4c(cc3[nH]2)C(=O)N(CCCN2CCCC2)C4=O)c(C)c1",
    "IC50": "500 to 5000 nM"
  },
  {
    "COMPOUND": "C[C@H](NC(=O)c1ccc(N2CC(CC#N)(n3cc(-c4ccnc5[nH]ccc45)cn3)C2)cn1)C1CC1",
    "IC50": "≤ 10 nM"
  },
  {
    "COMPOUND": "CC(C)Cn1cc(-c2cc3nccn3c(-c3cnn(C(CC#N)C4CC4)c3)n2)cn1 (centres unmarked)",
    "IC50": "10 to 100 nM"
  },
  {
    "COMPOUND": "CN1CCC(N2C(=O)c3cc4nc(-c5c(NC[C@@H](O)COc6cccc7c6OC(F)(F)C(F)O7)cc[nH]c5=O)[nH]c4cc3C2=O)CC1 (some centres unmarked)",
    "IC50": "500 to 5000 nM"
  },
  {
    "COMPOUND": "Cc1nnc(-c2cc3nccn3c(-c3cnn(C(CC#N)C4CC4)c3)n2)s1 (centres unmarked)",
    "IC50": "> 1000 nM"
  },
  {
    "COMPOUND": "CN1CC[C@@H](OC(=O)Cn2cc(Nc3ncc4ccn(C[C@H]5CC[C@H](O)CC5)c4n3)cn2)C1",
    "IC50": "< 100 nM"
  }
]
